folding stability dG values for the variants below.
B1: HEEH_KT_rd6_0790 (parent)
chain: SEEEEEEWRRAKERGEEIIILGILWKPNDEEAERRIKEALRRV

# Variants of: B1
# Assay Protocol: folding stability dG (cDNA display proteolysis); higher = more stable
# Conditions: PBS, room temperature
Measured Metric: folding stability dG (kcal/mol)

>>> df
    mutation_key       measured_metric  measured
 0          R14I  folding stability dG      1.92
 1          D29I  folding stability dG     0.872
 2           S1Y  folding stability dG      2.74
 3          L21R  folding stability dG      2.07
 4          K12N  folding stability dG       1.3
 5          E16S  folding stability dG      1.94
 6          E31H  folding stability dG      1.64
 7          I36H  folding stability dG     0.809
 8          K12Q  folding stability dG       1.9
 9          K26Y  folding stability dG      1.51
10          A11L  folding stability dG      2.14
11          E16V  folding stability dG      2.15
12          R35I  folding stability dG      1.66
13          R14H  folding stability dG      1.67
14          I23S  folding stability dG     0.659
15          E38T  folding stability dG      1.41
16          K26M  folding stability dG       1.7
17          A32I  folding stability dG      1.39
18           S1V  folding stability dG      2.55
19          R34L  folding stability dG      2.06
20          A32W  folding stability dG      1.02
21          R10Q  folding stability dG      1.81
22          R41W  folding stability dG      1.67
23          R10P  folding stability dG       0.8
24          E30H  folding stability dG      2.06
25          E33H  folding stability dG       1.3
26          K26A  folding stability dG      1.87
27           E3G  folding stability dG      2.33
28          R34V  folding stability dG      1.87
29          R10S  folding stability dG       1.5
30           E4R  folding stability dG      2.03
31          E33K  folding stability dG      1.09
32           E4P  folding stability dG       2.5
33          R14W  folding stability dG      1.58
34           E2H  folding stability dG      2.52
35          A39E  folding stability dG      1.53
36          I36P  folding stability dG     0.142
37           R9E  folding stability dG      1.94
38          G22M  folding stability dG       2.3
39          K12I  folding stability dG      1.97
40          E38F  folding stability dG      1.03
41           R9M  folding stability dG       1.9
42          E13K  folding stability dG      1.86
43           R9V  folding stability dG      1.75
44          V43N  folding stability dG      1.86
45          E30F  folding stability dG      2.05
46           E4N  folding stability dG      1.94
47          E38W  folding stability dG      1.02
48           E7I  folding stability dG      2.36
49          E33Q  folding stability dG      1.31
50          K37L  folding stability dG      2.75
51          A39S  folding stability dG      1.26
52          R41N  folding stability dG      1.97
53          A11Y  folding stability dG      1.95
54          I23T  folding stability dG      1.16
55          R34I  folding stability dG      1.77
56          W25S  folding stability dG     0.662
57          R41S  folding stability dG      1.94
58          D29N  folding stability dG      1.39
59          E31A  folding stability dG      1.79
60          A32P  folding stability dG     0.466
61          R42M  folding stability dG      1.98
62          E38K  folding stability dG      1.34
63          D29W  folding stability dG      1.55
64          E31T  folding stability dG      1.79
65           E7Q  folding stability dG      2.44
66          I23M  folding stability dG      1.08
67          K12S  folding stability dG      1.44
68           E2N  folding stability dG      2.27
69          E13G  folding stability dG      1.49
70           E5K  folding stability dG      1.36
71          G15Q  folding stability dG      1.81
72           E2A  folding stability dG       2.2
73          L21N  folding stability dG      1.24
74          R35M  folding stability dG       2.2
75          R10G  folding stability dG      1.56
76          I36T  folding stability dG      1.06
77          E16W  folding stability dG      2.03
78           E6T  folding stability dG      1.58
79           E4T  folding stability dG      2.29
80          R42W  folding stability dG      1.74
81          E13R  folding stability dG      1.77
82          P27L  folding stability dG      1.15
83          E30S  folding stability dG      1.83
84          E33D  folding stability dG      2.01
85          R42Y  folding stability dG      1.77
86          E17I  folding stability dG      1.94
87           W8K  folding stability dG     0.821
88          I18H  folding stability dG      1.29
89          L40D  folding stability dG     0.532
90          E13F  folding stability dG      1.77
